Molecular target: c-kit mutant D816V (Homo sapiens (Human), UniProt P10721, D816V/DEL694-753)
Sequence (P10721 other isoform, or with tags, fused parts or gaps D816V/del 694-753): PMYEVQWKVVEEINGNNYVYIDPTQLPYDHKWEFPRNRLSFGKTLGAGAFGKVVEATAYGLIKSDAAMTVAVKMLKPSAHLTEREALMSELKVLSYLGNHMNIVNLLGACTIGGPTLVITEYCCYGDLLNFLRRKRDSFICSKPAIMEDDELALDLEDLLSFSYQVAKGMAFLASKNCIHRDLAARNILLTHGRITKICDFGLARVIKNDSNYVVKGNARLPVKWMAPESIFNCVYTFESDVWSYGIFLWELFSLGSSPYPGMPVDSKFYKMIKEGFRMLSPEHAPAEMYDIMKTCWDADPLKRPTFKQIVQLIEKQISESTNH
Assay: c-Kit mutant D816V biochemical assay (AlphaScreen)
Conditions: c-kit D816V biochemical inhibitory activity
property.name: IC50

| smiles.structure | property.name | observed.result |
| --- | --- | --- |
| O=C(Nc1cnc2[nH]c(-c3ccc(F)cc3)cc2c1)c1n[nH]c2ccccc12 | IC50 | 0.0001 to 1 µM |
| Cc1n[nH]c(C(=O)Nc2cnc3[nH]c(-c4ccccc4F)nc3c2)c1C | IC50 | 0.0001 to 1 µM |
| Cc1n[nH]c(C(=O)Nc2cnc3[nH]c(-c4cnc(NC5CC5)nc4)cc3c2)c1C | IC50 | 0.0001 to 1 µM |
| Cc1n[nH]c(C(=O)Nc2cnc3[nH]c(I)cc3c2)c1C | IC50 | 1 to 10 µM |
| CNS(=O)(=O)c1cccc(-c2cc3cc(NC(=O)c4[nH]nc(C)c4C)cnc3[nH]2)c1 | IC50 | 0.0001 to 1 µM |
